ASSAY OVERVIEW: in vitro
ASSAY CONTEXT: PAMPA
Description: Effective permeability of compound by PAMPA assay
Entries and their Papp values follow.

[
  {
    "COMPOUND": "O=C(Nc1cccc(-c2cc3ncccc3[nH]2)c1)c1ccccc1",
    "Papp, ×10⁻⁶ cm/s": 0.606
  },
  {
    "COMPOUND": "O=C(c1ccc(F)cc1)N1CCCC(c2cc3nc(Cl)ccc3[nH]2)C1 (stereo unspecified)",
    "Papp, ×10⁻⁶ cm/s": 15
  },
  {
    "COMPOUND": "O=C(Nc1ccc(-c2cc3ncccc3[nH]2)cc1)c1ccccc1",
    "Papp, ×10⁻⁶ cm/s": 0.545
  },
  {
    "COMPOUND": "CN(CC(O)c1cc2ncccc2n1S(=O)(=O)c1ccccc1)C(=O)c1ccccc1 (stereo unspecified)",
    "Papp, ×10⁻⁶ cm/s": 15.7
  },
  {
    "COMPOUND": "O=C(c1ccc(F)cc1)N1CCCC(c2cc3nc(C(F)(F)F)ccc3[nH]2)C1 (stereo unspecified)",
    "Papp, ×10⁻⁶ cm/s": 12.2
  },
  {
    "COMPOUND": "O=C(c1cc(C2CC2)no1)N1CCCC(c2cc3ncccc3[nH]2)C1 (stereo unspecified)",
    "Papp, ×10⁻⁶ cm/s": 3.17
  },
  {
    "COMPOUND": "COc1cc(C(=O)N2CCCC(c3cc4ncccc4[nH]3)C2)on1 (stereo unspecified)",
    "Papp, ×10⁻⁶ cm/s": 6.36
  },
  {
    "COMPOUND": "O=C(CCc1nc2cccnc2n1CCO)Nc1ccccc1",
    "Papp, ×10⁻⁶ cm/s": 3.98
  },
  {
    "COMPOUND": "O=C(c1cc(C(F)(F)F)no1)N1CCCC(c2cc3ncc(Br)cc3[nH]2)C1 (stereo unspecified)",
    "Papp, ×10⁻⁶ cm/s": 7.99
  },
  {
    "COMPOUND": "O=C(c1ccccc1)N1CCCC(c2cn3ncccc3n2)C1 (stereo unspecified)",
    "Papp, ×10⁻⁶ cm/s": 13.9
  }
]

---

Entries and their IC50 values follow.
Tested on: Trypanosoma brucei rhodesiense
ASSAY OVERVIEW: microbe, parasite or virus in culture
ASSAY CONTEXT: STIB900, 72 h
Description: Antiprotozoal activity against Trypanosoma brucei rhodesiense STIB900 trypomastigotes incubated for 72 hrs by resazurin dye based fluorimetric analysis

[
  {
    "MOLECULE": "CC(C)(O)c1cc(C(=O)N2CCCC(c3cc4ncccc4[nH]3)C2)on1 (stereo unspecified)",
    "MEASURED ON": "Trypanosoma brucei rhodesiense",
    "IC50": "64 µM"
  },
  {
    "MOLECULE": "N#Cc1ccc(C(=O)N2CCCC(c3cc4ncccc4[nH]3)C2)cc1 (stereo unspecified)",
    "MEASURED ON": "Trypanosoma brucei rhodesiense",
    "IC50": "64 µM"
  },
  {
    "MOLECULE": "O=C(c1ccc(F)cc1)N1CCCC(c2cc3ncccc3[nH]2)C1 (stereo unspecified)",
    "MEASURED ON": "Trypanosoma brucei rhodesiense",
    "IC50": "32.8 µM"
  },
  {
    "MOLECULE": "O=C(c1cc(C(F)(F)F)n[nH]1)N1CCCC(c2cc3ncccc3[nH]2)C1 (stereo unspecified)",
    "MEASURED ON": "Trypanosoma brucei rhodesiense",
    "IC50": "64 µM"
  },
  {
    "MOLECULE": "CCN(CCc1nc2ncc(Cl)cc2[nH]1)C(=O)c1ccc(F)cc1",
    "MEASURED ON": "Trypanosoma brucei rhodesiense",
    "IC50": "30.3 µM"
  },
  {
    "MOLECULE": "O=C(OCc1ccccc1)N1CCCC(c2cn3cccnc3n2)C1 (stereo unspecified)",
    "MEASURED ON": "Trypanosoma brucei rhodesiense",
    "IC50": "55.4 µM"
  },
  {
    "MOLECULE": "Cc1ccoc1C(=O)N1CCCC(c2cc3ncccc3[nH]2)C1 (stereo unspecified)",
    "MEASURED ON": "Trypanosoma brucei rhodesiense",
    "IC50": "64 µM"
  },
  {
    "MOLECULE": "CCC(=O)N1CCCC(c2nc3ncc(Cl)cc3[nH]2)C1 (stereo unspecified)",
    "MEASURED ON": "Trypanosoma brucei rhodesiense",
    "IC50": "41.9 µM"
  },
  {
    "MOLECULE": "O=S(=O)(c1ccccc1)N1CC=C(c2cc3ncccc3[nH]2)CC1",
    "MEASURED ON": "Trypanosoma brucei rhodesiense",
    "IC50": "64 µM"
  },
  {
    "MOLECULE": "CN(C(=O)c1ccccc1)c1cccc(-c2cc3ncccc3[nH]2)c1",
    "MEASURED ON": "Trypanosoma brucei rhodesiense",
    "IC50": "9.02 µM"
  },
  {
    "MOLECULE": "O=C(c1ccc(F)cc1)N1CC=C(c2cc3ncccc3[nH]2)CC1",
    "MEASURED ON": "Trypanosoma brucei rhodesiense",
    "IC50": "39.4 µM"
  }
]

---

ASSAY OVERVIEW: in vitro
ASSAY CONTEXT: human, MRC5 SV2 cells
Description: Selectivity index, ratio of IC50 for human MRC5 SV2 cells to IC50 for Trypanosoma brucei rhodesiense STIB900 trypomastigotes
Respond with 1.0 for selectivity ratio values of 2 and above, 0.0 for values below.

[
  {
    "COMPOUND": "CCN(CCc1nc2ncc(Cl)cc2[nH]1)C(=O)c1ccc(F)cc1",
    "QUALITATIVE LABEL": 1.0
  },
  {
    "COMPOUND": "O=C(c1ccccc1)N1CCCC(c2cc3ncccc3[nH]2)C1 (stereo not given)",
    "QUALITATIVE LABEL": 0.0
  },
  {
    "COMPOUND": "O=C(c1cc(C2CC2)no1)N1CCCC(c2cc3ncccc3[nH]2)C1 (stereo not given)",
    "QUALITATIVE LABEL": 0.0
  },
  {
    "COMPOUND": "O=C(c1ccccc1)N1CC=C(c2cc3ncccc3[nH]2)CC1",
    "QUALITATIVE LABEL": 1.0
  },
  {
    "COMPOUND": "O=C(c1cc(C(F)(F)F)no1)N1CCCC(c2cc3ncccc3[nH]2)C1 (stereo not given)",
    "QUALITATIVE LABEL": 0.0
  },
  {
    "COMPOUND": "O=C(Nc1cccc(-c2cc3ncccc3[nH]2)c1)c1ccccc1",
    "QUALITATIVE LABEL": 1.0
  },
  {
    "COMPOUND": "O=C(c1ccc(F)cc1)N1CCCC(c2cc3nc(C(F)(F)F)ccc3[nH]2)C1 (stereo not given)",
    "QUALITATIVE LABEL": 1.0
  },
  {
    "COMPOUND": "CC(C)c1cc(C(=O)N2CCCC(O)(c3cc4ncccc4n3S(=O)(=O)c3ccccc3)C2)on1 (stereo not given)",
    "QUALITATIVE LABEL": 0.0
  },
  {
    "COMPOUND": "COc1ccc(Cl)cc1C(=O)N1CCCC(c2cc3ncccc3[nH]2)C1 (stereo not given)",
    "QUALITATIVE LABEL": 0.0
  }
]

---

Test system: Trypanosoma brucei rhodesiense
ASSAY OVERVIEW: microbe, parasite or virus in culture
ASSAY CONTEXT: STIB900, 72 h

[
  {
    "COMPOUND": "O=C(c1ccccc1)N1CCN(c2nc3ccccc3s2)CC1",
    "UNITS": "µM",
    "IC90": 64
  },
  {
    "COMPOUND": "O=C(c1ccc(F)cc1)N1CCC(c2cc3ncccc3[nH]2)C1 (stereo unspecified)",
    "UNITS": "µM",
    "IC90": 64
  },
  {
    "COMPOUND": "CCN(CCc1nc2ncccc2[nH]1)C(=O)c1ccccc1",
    "UNITS": "µM",
    "IC90": 64
  },
  {
    "COMPOUND": "O=C(c1cncnc1)N1CCCC(c2cc3ncccc3[nH]2)C1 (stereo unspecified)",
    "UNITS": "µM",
    "IC90": 64
  },
  {
    "COMPOUND": "COc1ccc2cc(C(=O)N3CCCC(c4cc5ncccc5[nH]4)C3)[nH]c2c1 (stereo unspecified)",
    "UNITS": "µM",
    "IC90": 32
  },
  {
    "COMPOUND": "O=C(c1ccc(F)cc1)N1CCCC(c2cc3nc(C(F)(F)F)ccc3[nH]2)C1 (stereo unspecified)",
    "UNITS": "µM",
    "IC90": 57.5
  },
  {
    "COMPOUND": "O=C(c1ccccc1)N1CCC(c2cc3ncccc3[nH]2)CC1",
    "UNITS": "µM",
    "IC90": 64
  },
  {
    "COMPOUND": "COc1cccc(C(=O)N2CCCC(c3cc4ncccc4[nH]3)C2)c1OC (stereo unspecified)",
    "UNITS": "µM",
    "IC90": 32
  },
  {
    "COMPOUND": "COc1cc(OC)c2cc(C(=O)N3CCCC(c4cc5ncccc5[nH]4)C3)[nH]c2c1 (stereo unspecified)",
    "UNITS": "µM",
    "IC90": 24.4
  },
  {
    "COMPOUND": "Nc1cc(C2CCCN(C(=O)c3ccccc3)C2)[nH]n1 (stereo unspecified)",
    "UNITS": "µM",
    "IC90": 64
  },
  {
    "COMPOUND": "O=C(c1ccc(C(F)(F)F)nc1)N1CCCC(c2cc3ncccc3[nH]2)C1 (stereo unspecified)",
    "UNITS": "µM",
    "IC90": 64
  }
]

Values compiled from ChEMBL document CHEMBL4342426.
